Give kon for every item shown.
experimental_system: T1, monkey GPC3-His protein (monkey)
T1 construct: Bought recombinant protein; also called monkey GPC3 protein
assay_method_text: SPR, antibody captured on Protein A chip, monkey GPC3-His analyte;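 note: run at 25 °C with 240 s association and up to 600 s dissociation, double-referenced, kinetics fitted to a 1:1 Langmuir binding model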
Form entry: value (M⁻¹ s⁻¹) — number only.

Endpoint output: kon of F2.23.8 (antibody, human IgG1, kappa, V domains shown, Human-murine chimeric antibody) VH: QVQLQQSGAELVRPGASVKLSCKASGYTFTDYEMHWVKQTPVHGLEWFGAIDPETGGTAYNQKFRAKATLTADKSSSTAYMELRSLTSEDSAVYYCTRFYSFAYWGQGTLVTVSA VL: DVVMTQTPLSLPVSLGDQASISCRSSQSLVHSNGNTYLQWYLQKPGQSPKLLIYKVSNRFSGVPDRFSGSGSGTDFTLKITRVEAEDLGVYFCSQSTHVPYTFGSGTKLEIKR . Value?
281000

Endpoint output: kon of F1.57.21 (antibody, human IgG1, kappa, V domains shown, Human-murine chimeric antibody) VH: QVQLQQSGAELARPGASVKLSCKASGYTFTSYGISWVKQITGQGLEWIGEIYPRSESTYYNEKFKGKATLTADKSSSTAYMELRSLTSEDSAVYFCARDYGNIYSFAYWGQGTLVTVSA VL: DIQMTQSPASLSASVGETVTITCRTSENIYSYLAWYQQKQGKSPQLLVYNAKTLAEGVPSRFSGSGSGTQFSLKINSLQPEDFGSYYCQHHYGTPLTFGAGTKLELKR . Value?
236000

Endpoint output: kon of F1.2.14 (antibody, human IgG1, kappa, V domains shown, Human-murine chimeric antibody) VH: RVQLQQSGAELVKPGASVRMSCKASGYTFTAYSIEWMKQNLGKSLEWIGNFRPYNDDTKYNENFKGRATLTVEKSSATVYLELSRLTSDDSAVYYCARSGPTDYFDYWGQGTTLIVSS VL: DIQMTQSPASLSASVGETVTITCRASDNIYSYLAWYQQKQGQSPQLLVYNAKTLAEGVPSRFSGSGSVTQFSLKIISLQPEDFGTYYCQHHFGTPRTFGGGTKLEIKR . Value?
125000
